Target of assay: human recombinant adrenergic α2C receptor (Homo sapiens, UniProt P18825)
Construct: expressed in transfected cells; host or cells: insect Sf9 cells
Sequence (P18825 whole entry): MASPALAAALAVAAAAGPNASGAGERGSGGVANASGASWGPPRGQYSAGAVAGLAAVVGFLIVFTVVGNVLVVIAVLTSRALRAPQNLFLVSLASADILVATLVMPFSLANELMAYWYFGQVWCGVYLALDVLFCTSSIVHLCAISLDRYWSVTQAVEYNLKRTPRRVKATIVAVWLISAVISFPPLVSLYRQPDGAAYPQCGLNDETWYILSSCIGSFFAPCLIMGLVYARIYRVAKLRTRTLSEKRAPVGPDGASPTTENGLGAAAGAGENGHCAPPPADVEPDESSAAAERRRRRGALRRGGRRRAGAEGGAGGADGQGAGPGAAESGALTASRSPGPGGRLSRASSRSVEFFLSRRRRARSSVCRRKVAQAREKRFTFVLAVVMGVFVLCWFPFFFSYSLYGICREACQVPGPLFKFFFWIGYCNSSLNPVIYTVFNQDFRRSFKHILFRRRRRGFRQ
Protocol description: Adrenergic α2C radioligand binding ([3H]MK-912)
Conditions used: percent inhibition of specific binding; compound at 1 μM; read-out: Inhibition of ligand binding, Adrenergic α2C
Recorded inhibition at 1 µM values for a group of compounds are listed next.
Quantity name: inhibition at 1 µM

# Compound, Quantity name, Result
data = [
    ("CCN1CCc2c(c3ccccc3n2CC(O)c2ccc(C)cc2)C1 (racemic) [Compound 44]", "inhibition at 1 µM", "35%"),
    ("Cc1ccc(C(O)Cn2c3c(c4cc(C)ccc42)CN(C)CC3)cc1 (racemic) [Compound 43]", "inhibition at 1 µM", "100%"),
    ("Cc1ccc(C(O)Cn2c3c(c4ccccc42)CN(C)CC3)cc1 (racemic) [Compound 53]", "inhibition at 1 µM", "82%"),
    ("CCN1CCc2c(c3cc(C)ccc3n2CC(O)c2ccc(C)cc2)C1 (racemic) [Compound 51]", "inhibition at 1 µM", "92%"),
    ("C/C(=C\\n1c2c(c3cc(Cl)ccc31)CN(C)CC2)c1ccc(F)cc1 [Compound 83]", "inhibition at 1 µM", "99%"),
]

* * *

Recorded inhibition at 1 µM values for a group of compounds are listed next.
Target of assay: human recombinant serotonin (5-Hydroxytryptamine) 5-HT2C receptor (Homo sapiens, UniProt P28335)
Construct: expressed in transfected cells; host or cells: Chinese hamster ovary (CHO-K1) cells
Sequence (P28335 33-458): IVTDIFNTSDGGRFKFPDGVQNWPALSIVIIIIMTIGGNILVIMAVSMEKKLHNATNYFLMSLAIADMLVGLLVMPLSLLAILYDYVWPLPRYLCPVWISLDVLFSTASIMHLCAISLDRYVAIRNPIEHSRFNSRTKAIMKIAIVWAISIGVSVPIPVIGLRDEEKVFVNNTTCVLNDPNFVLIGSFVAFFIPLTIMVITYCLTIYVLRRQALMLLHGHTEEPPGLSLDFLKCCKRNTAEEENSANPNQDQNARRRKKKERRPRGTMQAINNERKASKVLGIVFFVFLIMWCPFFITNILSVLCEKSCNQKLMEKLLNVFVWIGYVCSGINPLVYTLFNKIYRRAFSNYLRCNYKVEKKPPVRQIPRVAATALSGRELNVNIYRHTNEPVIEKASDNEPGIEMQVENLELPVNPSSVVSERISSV
Protocol description: Serotonin 5-HT2C radioligand binding ([3H]Mesulergine)
Conditions used: compound at 1 μM; read-out: Inhibition of ligand binding, Serotonin 5-HT2C (percent inhibition of specific binding)

# Compound, inhibition at 1 µM
records = [
    ("CCN1CCc2c(c3ccccc3n2CC(O)c2ccc(C)cc2)C1 (racemic) [Compound 44]", "36%"),
    ("C/C(=C\\n1c2c(c3cc(Cl)ccc31)CN(C)CC2)c1cccc(F)c1 [Compound 234]", "102%"),
    ("CN1CCc2c(c3cc(Cl)ccc3n2C/C=C/c2ccc(F)cc2)C1 [Compound 126]", "84%"),
    ("COc1ccc(/C(C)=C/n2c3c(c4cc(Cl)ccc42)CN(C)CC3)cc1F [Compound 93]", "99%"),
    ("Cc1ccc2c(c1)c1c(n2CC(O)c2ccc(C)nc2)CCN(C)C1 (centres unmarked) [Compound 48]", "67%"),
    ("CN1CCc2c(c3cc(Cl)ccc3n2C#Cc2ccc(Cl)cc2)C1 [Compound No. 480]", "102%"),
    ("Cc1ccc2c(c1)c1c(n2CC#Cc2ccccn2)CCN(C)C1 [Compound No. 500]", "77%"),
    ("C/C(=C\\n1c2c(c3cc(Cl)ccc31)CN(CCC(C)(C)O)CC2)c1ccncc1 [compound 404]", "90%"),
    ("Cc1ccc2c(c1)c1c(n2C#Cc2ccc(F)cc2)CCN(C)C1 [Compound No. 478]", "110%"),
    ("C/C(=C/n1c2c(c3cc(Cl)ccc31)CN(C)CC2)c1ccccc1F [Compound 212]", "104%"),
    ("C/C(=C\\n1c2c(c3cc(Cl)ccc31)CN(C)CC2)c1ccc(F)c(F)c1 [Compound 98]", "100%"),
    ("C=C(Cn1c2c(c3cc(Cl)ccc31)CN(C)CC2)c1cccnc1 [Compound 133]", "96%"),
    ("CNC(=O)C/C(=C\\n1c2c(c3cc(C)ccc31)CN(C)CC2)c1ccc(F)cc1 [Compound 207]", "97%"),
    ("COc1ccc(C#Cn2c3c(c4cc(C)ccc42)CN(C)CC3)cc1F [Compound No. 485]", "102%"),
    ("C/C(=C\\n1c2c(c3cc(C)ccc31)CN(C)CC2)c1ccc(O)cc1 [Compound 235]", "101%"),
    ("CN1CCc2c(c3cc(Cl)ccc3n2CC(C)(O)c2cccnc2)C1 (centres unmarked) [Compound 61]", "90%"),
    ("Cc1ccc2c(c1)c1c(n2CC(C)(O)c2ccc(C)nc2)CCN(C)C1 (centres unmarked) [Compound 52]", "87%"),
    ("Cc1ccc2c(c1)c1c(n2C#Cc2ccc(Cl)cc2)CCN(C)C1 [Compound No. 481]", "104%"),
    ("Cc1ccc2[nH]c3c(c2c1)CN(C)CC3 [Compound 3]", "96%"),
    ("Cc1ccc2c(c1)c1c(n2CC(C)(O)c2ccncc2)CCN(C)C1 (centres unmarked) [Compound 62]", "89%"),
    ("C/C(=C\\n1c2c(c3cc(C)ccc31)CN(C)CC2)c1ccncc1 [Compound 88]", "99%"),
    ("Cc1ccc2c(c1)c1c(n2/C=C/c2ccccc2)CCN(C)C1 [Compound 202]", "101%"),
    ("Cc1ccc2c(c1)c1c(n2CC(C)(O)c2cccnc2)CCN(C)C1 (centres unmarked) [Compound 60]", "86%"),
    ("C/C(=C/n1c2c(c3cc(C)ccc31)CN(C)CC2)c1ccncc1 [Compound 224]", "97%"),
    ("CCC(O)(Cn1c2c(c3cc(Cl)ccc31)CN(C)CC2)c1ccc(F)cc1 (centres unmarked) [Compound 78]", "103%"),
    ("C/C(=C\\n1c2c(c3cc(C)ccc31)CN(C)CC2)c1ccc(F)cc1 [Compound 87]", "100%"),
    ("CN1CCc2c(c3c(Cl)c(Cl)ccc3n2CC(C)(O)c2ccncc2)C1 (centres unmarked) [Compound 190]", "52%"),
    ("COc1ccc(/C(C)=C/n2c3c(c4cc(C)ccc42)CN(C)CC3)cc1F [Compound 214]", "95%"),
    ("CC(=Cn1c2c(c3cc(Cl)ccc31)CN(C)CC2)c1ccc(Cl)cc1Cl (stereo in doubt) [Compound 111]", "100%"),
    ("C/C(=C\\n1c2c(c3cc(C)ccc31)CN(C)CC2)c1ccc(Cl)cc1 [Compound 211]", "107%"),
    ("Cc1ccc(C(O)Cn2c3c(c4cc(C)ccc42)CN(C)CC3)cc1 (racemic) [Compound 43]", "96%"),
    ("CN1CCc2c(c3cc(Cl)ccc3n2C2=C(c3cccnc3)CCCC2)C1 [Compound No. 166]", "46%"),
    ("C/C=C/C(=C\\n1c2c(c3cc(Cl)ccc31)CN(C)CC2)c1ccc(F)cc1 [Compound 204]", "102%"),
    ("C/C(=C\\n1c2c(c3cc(Cl)ccc31)CN(C)CC2)c1cc(F)c(F)cc1Cl [Compound 241]", "100%"),
    ("Cc1ccc2c(c1)c1c(n2/C=C/c2ccc(C)nc2)CCN(C)C1 [compound 95]", "91%"),
]
